# studyTarget: T1, wild type full length EGFR purified from A431 cells (human, UniProt P00533 25-1210)
# T1 construct: mature; Bought; coated on ELISA wells; also called full length EGFR receptor antigen; Sigma E3641
# assayRemarks: competition ELISA, competitor Ab-1
# Parameters: concentration or dose not given beside the values
testReadout: % inhibition (%)
Express the result in % but write the number alone.

Answered examples (2):
binder	unit	resultValue
antibody 1030 (antibody, human IgG1, kappa, V domains shown, Chimeric IgG1 kappa) VH: EVQLVESGGGLVKPGGSLKLSCAASGFTFSSYALSWVRQTPERRLEWVASISGVGSTYFPDSVKGRFTMSRDNARNILYLQMSSLRSEDTAMYYCARGSDGYFYAMDYWGQGTSVTVSS VL: DIVLTQSPASLAVSLGQRATISCRASKSVSTSGYSFMHWYQLKPGQPPKLLIYLASNLESGVPARFSGSGSGTDFTLNIHPVEEEDAATYYCQHSREFPLTFGGGTKLEIKR	%	91
antibody 992 (antibody, human IgG1, kappa, V domains shown, Chimeric mouse/human IgG1 kappa; the VL entry includes the human kappa constant region) VH: EVQLQQPGSELVRPGASVKLSCKASGYTFTSYWMHWVKQRPGQGLEWIGNIYPGSRSTNYDEKFKSKATLTVDTSSSTAYMQLSSLTSEDSAVYYCTRNGDYYVSSGDAMDYWGQGTSVTVSS VL: DIQMTQTTSSLSASLGDRVTISCRTSQDIGNYLNWYQQKPDGTVKLLIYYTSRLHSGVPSRFSGSGSGTDFSLTINNVEQEDVATYFCQHYNTVPPTFGGGTKLEIKR	%	78

Here is another binder to look at.
Q: // lookup % inhibition for antibody 1344 (antibody, human IgG1, kappa, V domains shown, Chimeric IgG1 kappa) VH: QVQLKESGPGLVAPSQSLSITCTVSGFSLTIYGVHWVRQPPGKGLEWLGVIWAGGNTNYNSALMSRLSISKDNSKSQVFLKMNSLQTDDTAMYFCARGYGYNLDYWGQGTTLTVSS VL: DIQMTQTTSSLSASLGDRVTISCSASQGISNYLNWYQQKPDGTVKLLIYYTSSLHSGVPSRFSGSGSGTDYSLTISNLEPEDIATYYCQQYSKLPYTFGGGTKLEIKR
Ans: 19
